- Target or system: recombinant human MMP-13 (Homo sapiens, UniProt P45452)
- Construct: made in house; host or cells: baculovirus (pBlueBac4 / Bac-N-Blue; virus made in Sf9), expressed in High-Five insect cells; culture supernatant used
- Assay notes: Assay of MMP-13 inhibiting activity (fluorogenic peptide substrate)
- Assay type: biochemical
- Details: Table 12; 37° C., 2 hours
Below is a list of entries, each paired with its recorded IC50 value.
// note: answer is a bare numeric in nM

>  <Compound>
CC(=O)SC1CCC(=O)N(Cc2ccc(Oc3ccccc3)cc2)C1 (stereo not drawn)

>  <Target or system>
recombinant human MMP-13 (Homo sapiens, UniProt P45452)

>  <Result unit>
nM

>  <IC50>
300

$$$$
>  <Compound>
O=C1CCC(S)CN1Cc1ccc(Oc2ccccc2)cc1 (stereo not drawn)

>  <Target or system>
recombinant human MMP-13 (Homo sapiens, UniProt P45452)

>  <Result unit>
nM

>  <IC50>
60

$$$$

Kindly review the next compound as well.
query: Give IC50 for O=C1CC(S)CCN1Cc1ccc(Oc2ccccc2)cc1 (stereo not drawn)
result: 17

* * *

- Target or system: recombinant human MMP-13 (Homo sapiens)
- Construct: made in house; host or cells: baculovirus (pBlueBac4 / Bac-N-Blue; virus made in Sf9), expressed in High-Five insect cells; culture supernatant used
- Assay notes: Assay of MMP-13 inhibiting activity (fluorogenic peptide substrate)
- Format: biochemical
- Details: Table 3; 37° C., 2 hours
Assay readout: pIC50
Lab note: report pIC50 as minus log10 of the concentration in molar units, number only.

query: Fill in reported pIC50 for this entry: CCOC(=O)CCS[C@@H]1CC(=O)N(Cc2ccc(Oc3ccccc3)cc2)C1 [Example 92]
result: 5.70

query: Query pIC50 for O=C(NCc1ccccc1)S[C@@H]1CC(=O)N(Cc2ccc(Oc3ccccc3)cc2)C1 [Example 54]
result: 8.82

query: Hello, please tell me recorded pIC50 for this one: CNC(=S)S[C@@H]1CC(=O)N(Cc2ccc(Oc3ccccc3)cc2)C1 [Example 76]
result: 8.92

query: Hello, please tell me recorded pIC50 for this one: CS[C@@H]1CC(=O)N(Cc2ccc(Oc3ccccc3)cc2)C1 [Example 89]
result: 6.15

query: Identify the reported pIC50 for the following entry. CCOC(=O)CSS[C@@H]1CC(=O)N(Cc2ccc(Oc3ccccc3)cc2)C1 [Example 82]
result: 7.30

* * *

- Target or system: recombinant human MMP-13 (Homo sapiens, UniProt P45452)
- Construct: made in house; host or cells: baculovirus (pBlueBac4 / Bac-N-Blue; virus made in Sf9), expressed in High-Five insect cells; culture supernatant used
- Assay notes: Assay of MMP-13 inhibiting activity (fluorogenic peptide substrate)
- Type: biochemical
- Details: Table 3; 37° C., 2 hours
- Procedure: Based on the sequence described in the literature by Freije, J. M. et al (Journal of Biological Chemistry, 269: 16766-16773, 1994) and using a PCR method known per se, a human MMP-13 cDNA was obtained. […] The level of liberated MOCAc-Pro-Leu-Gly was determined using a fluorophotometer (MTP-32/F2: CORONA DENKI) at the excitation wavelength of 330 nm and the fluorescent wavelength of 405 nm. […]
Known IC50 of a selection of molecules
Expressed in nM, but write only the number.

Worked examples follow.
>  <Molecule>
COC(=O)c1ccc(CS[C@@H]2CC(=O)N(Cc3ccc(Oc4ccccc4)cc3)C2)cc1

>  <Target or system>
recombinant human MMP-13 (Homo sapiens, UniProt P45452)

>  <Measured value>
400

$$$$
>  <Molecule>
CC(C)(C)C(=O)OCSC1CC(=O)N(Cc2ccc(Oc3ccccc3)cc2)C1 (stereo not shown)

>  <Target or system>
recombinant human MMP-13 (Homo sapiens, UniProt P45452)

>  <Measured value>
30

$$$$
>  <Molecule>
CCOC(=O)S[C@@H]1CC(=O)N(Cc2ccc(Oc3ccccc3)cc2)C1

>  <Target or system>
recombinant human MMP-13 (Homo sapiens, UniProt P45452)

>  <Measured value>
30

$$$$

We next turn to a different molecule, shown below.
query: Give IC50 for O=C(O)CNC(=O)S[C@@H]1CC(=O)N(Cc2ccc(Oc3ccccc3)cc2)C1 tested on recombinant human MMP-13 (Homo sapiens, UniProt P45452).
result: 2

Value source: patent US6953789B2
